Please go through the items and note down their koff.
Biological target: T1, Macaca fascicularis IL2Rγ extracellular domain expressed with a C-terminal myc-myc-hexahistidine tag (Macaca fascicularis)
T1 construct: also called mfIL-2Rg-MMH; mfIL-2RG-MMH
T1 chain: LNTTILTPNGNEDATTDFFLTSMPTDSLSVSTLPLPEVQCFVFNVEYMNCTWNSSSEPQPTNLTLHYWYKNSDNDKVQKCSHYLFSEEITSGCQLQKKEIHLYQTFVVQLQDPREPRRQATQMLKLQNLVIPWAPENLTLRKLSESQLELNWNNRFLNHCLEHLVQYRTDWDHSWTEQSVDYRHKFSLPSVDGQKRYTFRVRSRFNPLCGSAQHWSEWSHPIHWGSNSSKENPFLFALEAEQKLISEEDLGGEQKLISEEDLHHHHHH
Experiment: SPR Biacore 4000, mAb captured by anti-hFc, HBS-ET, 25C
Method: Equilibrium dissociation constants (KD values) for IL-2Rγ binding to purified anti-IL2Rγ monoclonal antibodies were determined using a Biacore 4000 instrument equipped with a real-time surface plasmon resonance biosensor. […] The dissociation of monoclonal antibody bound IL2Rγ reagents were monitored for 8-10 minutes in HBS-ET running buffer. […] Binding dissociation equilibrium constants (KD) and dissociative half-lives (t_{1/2}) were calculated from the kinetic rate constants as: […]
Numbers only, in s⁻¹.

H4H12858P (antibody, human IgG4 S228P, kappa, V domains shown, anti-IL2Rγ monoclonal antibody expressed with human IgG4 Fc; also called REGN9433) VH: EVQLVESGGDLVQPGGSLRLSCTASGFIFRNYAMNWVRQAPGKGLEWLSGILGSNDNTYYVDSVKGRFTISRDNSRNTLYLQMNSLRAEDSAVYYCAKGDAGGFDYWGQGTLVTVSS VL: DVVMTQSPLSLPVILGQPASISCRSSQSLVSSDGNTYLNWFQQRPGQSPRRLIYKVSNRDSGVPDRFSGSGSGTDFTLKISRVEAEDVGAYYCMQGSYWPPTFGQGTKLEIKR : 0.000269

Pending binder:
For this binder ( H4H12889P (antibody, human IgG4 S228P, kappa, V domains shown, anti-IL2Rγ monoclonal antibody expressed with human IgG4 Fc; also called REGN7257) VH: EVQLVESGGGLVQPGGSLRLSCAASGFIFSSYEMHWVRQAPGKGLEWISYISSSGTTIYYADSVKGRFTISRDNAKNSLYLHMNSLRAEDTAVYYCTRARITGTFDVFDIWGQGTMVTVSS VL: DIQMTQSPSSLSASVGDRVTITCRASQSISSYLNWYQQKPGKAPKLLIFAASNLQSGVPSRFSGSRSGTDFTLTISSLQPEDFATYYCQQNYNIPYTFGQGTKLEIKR ), measured koff is 0.000404
